inhibition: recorded values
Test system: Yersinia pseudotuberculosis
Assay: Effect on T3S in Yersinia pseudotuberculosis 3 pIB29 assessed as inhibition of light emission at 10 uM by luciferase reporter gene assay
PROPERTY_MEASURED: inhibition (%)

# MOLECULAR_STRING, TARGET_OR_SYSTEM, RECORDED_MEASUREMENT
rows = [
    ("O=C(Nc1ccc(SC(F)(F)F)cc1)c1cc2cc(Br)ccc2c(Br)c1O", "Yersinia pseudotuberculosis", 41),
    ("CC(C)(C)c1ccc(NC(=O)c2c(O)c(Cl)cc(Cl)c2Cl)cc1", "Yersinia pseudotuberculosis", 27),
    ("Cc1cc(C)cc(NC(=O)c2c(O)c(Cl)cc(Cl)c2Cl)c1", "Yersinia pseudotuberculosis", 21),
    ("CC(=O)Oc1c(Cl)cccc1C(=O)Nc1ccc(SC(F)(F)F)cc1", "Yersinia pseudotuberculosis", 55),
    ("O=C(Nc1ccc(Br)cc1)c1cccc(Cl)c1O", "Yersinia pseudotuberculosis", 24),
    ("O=C(Nc1ccc(Br)cc1)c1cc(I)ccc1O", "Yersinia pseudotuberculosis", 71),
    ("CC(=O)Oc1c(I)cc(I)cc1C(=O)Nc1ccc(SC(F)(F)F)cc1", "Yersinia pseudotuberculosis", 72),
    ("CCCCCCCc1ccc(NC(=O)c2cc(I)cc(I)c2O)cc1", "Yersinia pseudotuberculosis", 30),
    ("CC(=O)Oc1c(I)cc(I)cc1C(=O)Nc1ccc(C(C)(C)C)cc1", "Yersinia pseudotuberculosis", 17),
    ("CC(=O)Oc1c(Cl)cc(Cl)c(Cl)c1C(=O)Nc1ccc(SC(F)(F)F)cc1", "Yersinia pseudotuberculosis", 67),
    ("O=C(Nc1ccccc1)c1cc(I)cc(I)c1O", "Yersinia pseudotuberculosis", 32),
    ("O=C(Nc1ccc(Cl)cc1)c1cc(I)cc(I)c1O", "Yersinia pseudotuberculosis", 100),
    ("Cc1cc(NC(=O)c2cc(Cl)ccc2O)ccc1Cl", "Yersinia pseudotuberculosis", 61),
    ("COc1cc(Cl)c(C)cc1NC(=O)c1cccc(C(C)C)c1OC(C)=O", "Yersinia pseudotuberculosis", 10),
    ("O=C(Nc1ccc(Cl)cc1)c1cc(I)ccc1O", "Yersinia pseudotuberculosis", 91),
    ("CC(=O)Oc1ccc(F)cc1C(=O)Nc1ccc(C(C)(C)C)cc1", "Yersinia pseudotuberculosis", 37),
    ("CC(=O)Oc1c(C(=O)Nc2ccc(SC(F)(F)F)cc2)cc2cc(Br)ccc2c1Br", "Yersinia pseudotuberculosis", 9),
    ("O=C(Nc1ccc(Cl)cc1)c1ccccc1O", "Yersinia pseudotuberculosis", 14),
    ("CC(=O)Oc1c(Br)cc(Br)cc1C(=O)Nc1ccccc1F", "Yersinia pseudotuberculosis", 6),
    ("CC(=O)Oc1c(Cl)cc(Cl)c(Cl)c1C(=O)Nc1ccc(F)cc1", "Yersinia pseudotuberculosis", 19),
    ("CC(=O)Oc1c(I)cc(I)cc1C(=O)Nc1ccc(Br)cc1", "Yersinia pseudotuberculosis", 69),
    ("O=C(Nc1ccccc1)c1c(O)c(Cl)cc(Cl)c1Cl", "Yersinia pseudotuberculosis", 22),
    ("CC(=O)Oc1c(I)cc(I)cc1C(=O)Nc1ccccc1", "Yersinia pseudotuberculosis", 30),
    ("COc1cc(Cl)c(C)cc1NC(=O)c1cccc(C(C)C)c1O", "Yersinia pseudotuberculosis", 23),
    ("O=C(Nc1cc(Cl)ccc1F)c1cc(I)cc(I)c1O", "Yersinia pseudotuberculosis", 53),
    ("COc1cc(Cl)c(C)cc1NC(=O)c1cc(I)cc(I)c1O", "Yersinia pseudotuberculosis", 35),
    ("CC(C)(C)c1ccc(NC(=O)c2cc(F)ccc2O)cc1", "Yersinia pseudotuberculosis", 13),
    ("O=C(Nc1ccc(SC(F)(F)F)cc1)c1cccc(Cl)c1O", "Yersinia pseudotuberculosis", 61),
    ("CC(C)(C)c1cc(NC(=O)c2cc(Br)ccc2O)cc(C(C)(C)C)c1", "Yersinia pseudotuberculosis", 12),
    ("CC(=O)Oc1c(Cl)cccc1C(=O)Nc1ccc(Br)cc1", "Yersinia pseudotuberculosis", 18),
    ("CC(=O)Oc1c(I)cc(I)cc1C(=O)Nc1ccc(Cl)cc1", "Yersinia pseudotuberculosis", 76),
    ("O=C(Nc1ccc(SC(F)(F)F)cc1)c1cc(I)ccc1O", "Yersinia pseudotuberculosis", 57),
    ("CC(=O)Oc1ccc(Cl)cc1C(=O)Nc1ccc(Cl)c(C)c1", "Yersinia pseudotuberculosis", 99),
    ("CC(=O)Oc1ccc(I)cc1C(=O)Nc1ccc(Br)cc1", "Yersinia pseudotuberculosis", 98),
    ("O=C(Nc1ccccc1F)c1cc(Br)cc(Br)c1O", "Yersinia pseudotuberculosis", 14),
]
